# Lookup of reported melting point keyed by entry

- CC(C)c1cc(C(C)C)c(S(=O)(=O)c2ccccc2)cc1S(=O)(=O)NCCCn1ccnc1: 203 to 205 °C
- CCCc1ccc(S(=O)(=O)c2ccc(F)cc2)cc1S(=O)(=O)NC1CCOCC1: 131 to 133 °C

Turning to the following compound.
Query: melting point; subject: CCCc1ccc(S(=O)(=O)c2ccccc2)cc1S(=O)(=O)NC1CCN(C(=O)OC(C)(C)C)CC1
128 to 130 °C

----------
target: UniProtKB Q8N474; experiment: Cell-based assay for in vitro measurement of SFRP-1/SARP2 antagonist activity (U2OS cells co-transfected with 16x TCF-tk-Luciferase reporter, Wnt and hSFRP-1); conditions: U2OS, read-out: Fold Induction with SFRP-1, Conc 30 μM; with SFRP-1; fold induction over SFRP-1 control, single dose;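 further: U2OS cells co-transfected with a TCF-tk luciferase reporter, a Wnt vector, hSFRP-1 or empty vector and CMV-βgal, luciferase luminescence read in cell lysates alongside βgal activity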
Sequence (Q8N474 32-314): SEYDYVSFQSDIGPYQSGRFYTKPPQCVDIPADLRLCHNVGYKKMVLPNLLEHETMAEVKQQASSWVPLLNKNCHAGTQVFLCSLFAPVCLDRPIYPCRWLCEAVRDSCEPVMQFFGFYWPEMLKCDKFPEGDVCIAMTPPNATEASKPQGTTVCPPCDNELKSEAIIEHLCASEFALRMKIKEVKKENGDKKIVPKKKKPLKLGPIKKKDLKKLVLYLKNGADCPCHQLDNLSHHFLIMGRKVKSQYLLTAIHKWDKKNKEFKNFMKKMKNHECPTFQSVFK
Recorded metric: fold induction at 30 µM

• O=C1CCCN1CCCNS(=O)(=O)c1cccc(S(=O)(=O)c2ccccc2)c1 = 1.1
• CC(=O)NCCNS(=O)(=O)c1cccc(S(=O)(=O)c2ccccc2)c1 = 1.2
• CCOc1ccc(CCNS(=O)(=O)c2cc(S(=O)(=O)c3ccccc3)ccc2C)cc1 = 2.6

1. COc1cccc(CCNS(=O)(=O)c2cc(S(=O)(=O)c3ccc(C)cc3)ccc2C)c1
2. Cc1ccc(S(=O)(=O)c2ccccc2)cc1S(=O)(=O)NCCc1ccc2c(c1)OCO2
Given 1 and 2 , report the one with the higher recorded fold induction at 30 µM. Indicate your choice by writing its label.
2

1. COc1ccccc1CCNS(=O)(=O)c1cc(S(=O)(=O)c2ccc(F)cc2)ccc1C
2. O=S(=O)(NCCCn1ccnc1)c1cccc(S(=O)(=O)c2ccccc2)c1
Given 1 and 2 , report the one with the higher recorded fold induction at 30 µM. Indicate your choice by writing its label.
2
(2: 1.1, 1: 0.1)

P. COc1ccccc1CCNS(=O)(=O)c1cc(S(=O)(=O)c2ccccc2)ccc1C
Q. CCN(CC)CCNS(=O)(=O)c1cccc(S(=O)(=O)c2ccccc2)c1
R. O=S(=O)(NCCc1ccncc1)c1cccc(S(=O)(=O)c2ccccc2)c1
Sort ascending by fold induction at 30 µM. A ranking is expressed here by listing the labels in the requested order.
P, Q, R
(P: 0.5, Q: 1.2, R: 1.9)

P. O=S(=O)(NCCN1CCOCC1)c1cccc(S(=O)(=O)c2ccccc2)c1
Q. NC(=O)CCNS(=O)(=O)c1cccc(S(=O)(=O)c2ccccc2)c1
R. Cc1ccc(S(=O)(=O)c2ccc(Cl)cc2)cc1S(=O)(=O)NCCc1ccccc1Cl
Sort ascending by fold induction at 30 µM. A ranking is expressed here by listing the labels in the requested order.
Q, P, R
(Q: 0.6, P: 1.2, R: 1.8)
